# % inhibition Apo pol 10' listing for each entry below
- assay target: UniProt Q8ILY1
- assay method text: Fluorescence-based high-throughput DNA polymerase assay (molecular beacon), primary screen and dose-response
- Type: biochemical
- setup conditions: DRC-1; 10'; concentration 40
// note: answer is a bare numeric in %

Cc1nn(CC(=O)NCCSCc2ccco2)c(C)c1Br
47.0773
COc1ccc(NC(=O)Cn2ccc3c(=O)[nH]ccc32)cc1Cl [Molecule 10, COc1ccc(cc1Cl)NC(=O)Cn1ccc2c1cc[nH]c2=O]
83.862
CCOc1cccc2cc(C(=O)Nc3nnc(-c4ccno4)o3)oc12
91.7568
O=C(Cn1ccc2c(=O)[nH]ccc21)Nc1cc(F)ccc1F [Molecule 42, O=C(Cn1ccc2c1cc[nH]c2=O)Nc1cc(F)ccc1F]
77.421
CN(C)C=C1SCc2ccccc2C1=O
56.5642
O=C(O)C(=O)Nc1nc(-c2ccc3c(c2)OCCO3)cs1
47.7699

Which % inhibition Apo pol 10' value belongs to O=C1N/C(=N/c2ccccc2Cl)S/C1=C/c1ccc([N+](=O)[O-])o1 ?
80.0033

Which % inhibition Apo pol 10' value belongs to Cc1ccc(NC(=O)C2CCN(C(=O)c3cc4ccsc4[nH]3)CC2)c(Br)c1 ?
87

Which % inhibition Apo pol 10' value belongs to OC(C#Cc1ccccc1)c1ccco1 (stereo not drawn) ?
79.5386

----------
# DNA Pol listing for each entry below
- assay target: P. falciparum apicoplast DNA polymerase (Pf-apPOL) (Plasmodium falciparum, UniProt Q8ILY1)
- Sequence (Q8ILY1 entry or part of it): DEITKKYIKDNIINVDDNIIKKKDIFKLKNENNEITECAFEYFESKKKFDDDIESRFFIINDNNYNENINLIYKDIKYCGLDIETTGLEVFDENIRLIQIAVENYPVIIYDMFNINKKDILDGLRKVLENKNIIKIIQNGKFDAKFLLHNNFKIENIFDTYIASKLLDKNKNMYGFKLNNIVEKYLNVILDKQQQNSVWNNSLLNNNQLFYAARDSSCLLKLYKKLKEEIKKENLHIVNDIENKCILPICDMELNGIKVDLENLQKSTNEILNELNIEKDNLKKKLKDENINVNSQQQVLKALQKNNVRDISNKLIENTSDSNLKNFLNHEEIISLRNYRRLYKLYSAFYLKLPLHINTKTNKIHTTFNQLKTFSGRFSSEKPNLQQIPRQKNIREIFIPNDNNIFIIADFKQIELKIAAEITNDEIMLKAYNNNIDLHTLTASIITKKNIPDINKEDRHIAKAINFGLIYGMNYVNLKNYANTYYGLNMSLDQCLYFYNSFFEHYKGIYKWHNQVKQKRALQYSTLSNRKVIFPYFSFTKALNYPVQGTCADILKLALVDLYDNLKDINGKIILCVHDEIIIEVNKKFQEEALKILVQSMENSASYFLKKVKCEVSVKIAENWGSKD
- assay method text: Fluorescence-based high-throughput DNA polymerase assay (molecular beacon), primary screen and dose-response
- Assay type: biochemical
- setup conditions: "DNA Pol" of the 186 hits list (screen value); 90 min, 10 µM

CN(C)S(=O)(=O)Oc1ccc(-c2noc(-c3ccc(Oc4cc(Cl)cc(Cl)c4)o3)n2)cc1
81
O=C(CSc1nnc(-c2ccco2)[nH]1)c1ccc(Cl)cc1
40
CC1(C)CC(=O)C2=C(C1)OC1=C(C(=O)CC(C)(C)C1)C2c1ccc(O)cc1
31

Which DNA Pol value belongs to N#CC(=NNc1cc(C(F)(F)F)cc(C(F)(F)F)c1)C(=O)c1ccco1 ?
81

Which DNA Pol value belongs to Cc1ccc(C(=O)/C=C/C=C/C=C/N(C)C)o1 ?
48

Which DNA Pol value belongs to O=C(Cc1cc(=O)[nH]c(SCc2ccccc2)n1)Nc1ccc2c(c1)OCO2 ?
35

Which DNA Pol value belongs to O=[N+]([O-])c1ccc(/C=C/c2ccc3ccccc3n2)o1 ?
59

Which DNA Pol value belongs to O=C(c1c[nH]c2ncccc12)N1CCCC1 [Molecule 63, O=C(c1c[nH]c2c1cccn2)N1CCCC1] ?
28

----------
# % inhibition apPOL 180' listing for each entry below
- assay target: P. falciparum apicoplast DNA polymerase (Pf-apPOL) (Plasmodium falciparum, UniProt Q8ILY1)
- assay method text: Fluorescence-based high-throughput DNA polymerase assay (molecular beacon), primary screen and dose-response;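 as to % inhibition apPOL 180': test concentration in µM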
- Format: biochemical
- setup conditions: DRC-2; 180'; concentration 2.5
// note: answer is a bare numeric in %

The following molecules have reported results that may help.
COc1ccc2c(c1)C(c1ccccc1OC)CC(=O)O2 (stereo not shown)
-3.79
CC1(C)CC(=O)C2=C(C1)OC1=C(C(=O)CC(C)(C)C1)C2c1ccc(O)cc1
5.45
Cc1ccccc1C(=O)N1CCc2c(nc3cc(-c4ccccc4)[nH]n3c2=O)C1
4.5

Field: next molecule
Which % inhibition apPOL 180' value belongs to COc1cccc(Oc2c(C(F)(F)F)oc3cc(OC(=O)N(C)C)ccc3c2=O)c1 ?
6.57

----------
- assay target: P. falciparum apicoplast DNA polymerase (Pf-apPOL) (Plasmodium falciparum, UniProt Q8ILY1)
- assay method text: Fluorescence-based high-throughput DNA polymerase assay (molecular beacon), primary screen and dose-response;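 as to % inhibition apPOL 180': test concentration in µM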
- Format: biochemical
- setup conditions: DRC-1; 180'; concentration 10
# % inhibition apPOL 180' listing for each entry below
// note: answer is a bare numeric in %

Cc1cc(C)c2c(O)nc(SCC(=O)c3ccc(O)c(O)c3)nc2n1
62.9235
CC(NC(=O)Cc1cc(=O)[nH]c(SCc2cccc(Cl)c2)n1)c1ccccc1 (centres unmarked)
-3.791
COc1ccc(S(=O)(=O)/N=C2\NC(=O)/C(=C3\C(=O)Nc4ccc([N+](=O)[O-])cc43)S2)cc1
15.3394
O=C1N=C(Nc2cccc(Cl)c2Cl)S/C1=C\c1ccco1 [Molecule 3, O=C1N=C(S/C/1=C\c1ccco1)Nc1cccc(c1Cl)Cl]
52.4106
CCOC(=O)C1=C2c3cc(OC)c(OC)cc3CC(C)(C)N2C(=O)C1=O
23.6538
CC(=O)c1cc2c(N)c(/C(N)=N/C#N)sc2nc1C
0.782
CC1(C)CC(=O)C2=C(C1)OC1=C(C(=O)CC(C)(C)C1)C2c1ccc(O)cc1
19.133
CSCCC(C)(O)CNC(=O)C1CC1 (centres unmarked)
36.1682

Give recorded % inhibition apPOL 180' with P. falciparum apicoplast DNA polymerase (Pf-apPOL) (Plasmodium falciparum, UniProt Q8ILY1) for the following compound: O=[N+]([O-])c1cc2c(cc1CN1CCCCCC1)OCO2
1.794

Give recorded % inhibition apPOL 180' with P. falciparum apicoplast DNA polymerase (Pf-apPOL) (Plasmodium falciparum, UniProt Q8ILY1) for the following compound: Cc1nn(CC(=O)NCCSCc2ccco2)c(C)c1Br
2.547

Give recorded % inhibition apPOL 180' with P. falciparum apicoplast DNA polymerase (Pf-apPOL) (Plasmodium falciparum, UniProt Q8ILY1) for the following compound: COc1ccc(NC(=O)Cn2ccc3c(=O)[nH]ccc32)cc1Cl [Molecule 10, COc1ccc(cc1Cl)NC(=O)Cn1ccc2c1cc[nH]c2=O]
30.7094

Give recorded % inhibition apPOL 180' with P. falciparum apicoplast DNA polymerase (Pf-apPOL) (Plasmodium falciparum, UniProt Q8ILY1) for the following compound: O=C(Nc1nnc(-c2cccs2)o1)c1ccc([N+](=O)[O-])o1
3.855

Give recorded % inhibition apPOL 180' with P. falciparum apicoplast DNA polymerase (Pf-apPOL) (Plasmodium falciparum, UniProt Q8ILY1) for the following compound: O=[N+]([O-])c1ccc(/C=C/c2ccc3ccccc3n2)o1
46.0127

----------
- assay target: P. falciparum apicoplast DNA polymerase (Pf-apPOL) (Plasmodium falciparum, UniProt Q8ILY1)
- assay method text: Fluorescence-based high-throughput DNA polymerase assay (molecular beacon), primary screen and dose-response
- Type: biochemical
- setup conditions: primary screen value, "DNA Pol"; 90 min, 10 µM
Classification field: Criterion met = DNA Pol at or over 70; Criterion not met = DNA Pol under 70.

CCOc1nc2cccc(C(=O)OC(C)OC(=O)OC3CCCCC3)c2n1Cc1ccc(-c2ccccc2-c2nnn[nH]2)cc1 (stereo not shown)
Criterion met

Could you verify whether the entry CC(C)CCNC(=O)c1cnn2c(O)cc(CSc3ccc(Cl)cc3)nc12 shows DNA Pol of no less than 70?
Criterion not met

Could you verify whether the entry Cc1ccc(CNC(=O)c2cnn3c(O)cc(CSc4ccc(Cl)cc4)nc23)cc1 shows DNA Pol of no less than 70?
Criterion not met

Could you verify whether the entry C=CC1=C(C)c2cc3[nH]c(cc4nc(cc5[nH]c(cc1n2)c(C)c5CCC(=O)O)C(CCC(=O)O)=C4C)c(C)c3C=C shows DNA Pol of no less than 70?
Criterion met

Could you verify whether the entry O=C1NN(c2ccc(Cl)c(Cl)c2)C(=O)/C1=C/c1ccc(-c2ccc3c(c2)C(=O)OC3)o1 shows DNA Pol of no less than 70?
Criterion not met

Could you verify whether the entry N#CC(C#N)=C1SCN(c2cccc(Cl)c2)CS1 shows DNA Pol of no less than 70?
Criterion met

Could you verify whether the entry Cc1cc(C)c2c(c1)C1C=CCC1C(c1ccc(C(=O)O)cc1)N2 (stereo not shown) shows DNA Pol of no less than 70?
Criterion not met

Could you verify whether the entry Cc1ccccc1NC(=O)Cn1ccc2c(=O)[nH]ccc21 [Molecule 50, O=C(Cn1ccc2c1cc[nH]c2=O)Nc1ccc(cc1)C] shows DNA Pol of no less than 70?
Criterion not met

Could you verify whether the entry Cc1ccc(N2NC(=O)/C(=C\c3ccc(O)c([N+](=O)[O-])c3)C2=O)cc1Cl shows DNA Pol of no less than 70?
Criterion not met

----------
# % inhibition apPOL 180' listing for each entry below
- assay target: P. falciparum apicoplast DNA polymerase (Pf-apPOL) (Plasmodium falciparum)
- assay method text: Fluorescence-based high-throughput DNA polymerase assay (molecular beacon), primary screen and dose-response
- Type: biochemical
- setup conditions: DRC-2; concentration 80; 180'
// note: answer is a bare numeric in %

The following compounds have reported results that may help.
CCc1ccccc1NC(=O)c1ccc(-c2ncccc2NC(C)=O)cc1 [KU0203112]
77
COc1ccc(C=C2Oc3c(ccc4c3CN(Cc3ccco3)CO4)C2=O)c(OC)c1 [KU0199404]
43
Cc1ccc(C2=N/C(=C\c3ccc(I)o3)C(=O)O2)cc1[N+](=O)[O-] [KU0073890]
80
CCCCCc1c2c(cc(O)c1C(=O)O)OC(=O)c1c(cc(OC)cc1C(=O)CCCC)O2 [Molecule 24]
81

Which % inhibition apPOL 180' value belongs to O=C(Cn1ccc2c(=O)[nH]ccc21)Nc1ccccc1Cl [Molecule 19, O=C(Cn1ccc2c1cc[nH]c2=O)Nc1ccccc1Cl] ?
72

Which % inhibition apPOL 180' value belongs to Nc1ncnc(NC2CCCCC2)c1[N+](=O)[O-] [KU0193018] ?
69

Which % inhibition apPOL 180' value belongs to O=[N+]([O-])c1ccc(SCc2ccco2)c2cccnc12 [KU0034480] ?
75

Which % inhibition apPOL 180' value belongs to O=C(O)c1cc([N+](=O)[O-])c(N2CCN(c3cccc(C(F)(F)F)c3)CC2)c([N+](=O)[O-])c1 [KU0076747] ?
75

Which % inhibition apPOL 180' value belongs to CCCN1COc2ccc3c(=O)c(-c4ccccc4)coc3c2C1 [KU0199556] ?
39
